Quick reference: koff of the listed items.
experimental-system: recombinant human CD38 (human, UniProt P28907 43-300, limits assumed)
measurement-notes: SPR (Biacore 8K), antibody captured, antigen injected;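 note: antibodies held on a CM5 chip through anti-human IgG Fc, antigen in 3-fold serial dilutions, 1 min association then 10 min dissociation at 25 °C, 1:1 Langmuir global fit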
# unit: s⁻¹ | format: bare number

# binder, koff [s⁻¹]
rows = [
    ("26D4 (antibody, human IgG1, kappa, V domains shown, Rabbit-human chimeric anti-CD38: rabbit VH and VL on human IgG1 and kappa constant regions) VH: QEQLEESGGDLVKPEGSLTLTCTASGFSFSNDAICWVRQAPGKGLEWIACIYAGSGNTYYASWAKGRFSISKTSSTTVTLQMTSLTVADTATYFCASADTIDYFNLWGPGTLVTVSS VL: AQVLTQTPSPVSAAVGGTVTINCQASQSVYNNNYLAWYQQKPGQPPKLLIYRASNLASGVPSRFSASGSGTQFTLTISEVQSDDAATYYCQAYYRDPTTAFGGGTEVVVKR", 0.102),
    ("18E4 (antibody, human IgG1, kappa, V domains shown, Rabbit-human chimeric anti-CD38: rabbit VH and VL on human IgG1 and kappa constant regions) VH: QSLEESGGDLVKPGASLTLTCTASGFSFNNYWICWIRQAPGKGLEWVACIYSPSGDIKYYANWAKGRFTVSKTSSTTVTLQMTSLTGADTATYFCARELSGSSYEGYFESWGPGTLVTVSS VL: AQVLTQTPSSVSAAVGGTVTINCQCSQSVYGHNWLAWYQHKPGQPPKLLMYRASNLASGVPSRFKGSGSGSQFTLTIGEVQSDDAATYYCQGYYNGGSYAFGGGTEVVVRR", "8.13e-05"),
    ("22H6 (antibody, human IgG1, kappa, V domains shown, Rabbit-human chimeric anti-CD38: rabbit VH and VL on human IgG1 and kappa constant regions) VH: QSVEESGGRLVTPGTPLTLTCTVSGFSLSNNAISWVRQAPGKGLQWIGSIYGSGNTYYATWAKGRFTVSKTSTTVDLKINSPTTEDTATYFCAREGAGSSWGFNLWGPGTLVTVSS VL: AQVLTQTASSVSAAVGGTVTISCQSSESVYKNNYLSWYQQKPGQPLKCLIYSASTLASGVPSRFKGSGSGTQFTLTISDLESDDAATYYCAGGYSGNINGFGGGTEVVVKR", 0.021),
    ("25F12 (antibody, human IgG1, kappa, V domains shown, Rabbit-human chimeric anti-CD38: rabbit VH and VL on human IgG1 and kappa constant regions) VH: RSLEESGGRLVTPGTPLTLTCTTSGFSLSSYDMSWVRQAPGKGLEWIGYITYGGNIYYATWAKGRFTTSKTSTTVDLKITSPTTEDTATYFCARTLYTGGRYYFSLWGPGTLVTVSS VL: AQVLTQTPSSVSAVVGGTVTINCQSSQSIANSNEVAWYQQKLGQPPKLLIYDASTLASGVPSRFSGSGSGTQFTLIISGVQSDDAATYYCQGTVYDNVWYAAFGGGTEVVVKR", "2.24e-05"),
]

Now for a further binder.
Item: 21H9 (antibody, human IgG1, kappa, V domains shown, Rabbit-human chimeric anti-CD38: rabbit VH and VL on human IgG1 and kappa constant regions) VH: QSLEESGGDLVKPGASLTLTCTASGFSATTYYYYMCWVRQAPGKGLEWIACTYTGDGATYYATWAKGRFTISKTSSTTVTLQMTSLTAADTATYFCARSADNSIYYGYFNLWGPGTLVTVSS VL: AFELTQTPFSVSEPVGGTVTINCQASENIYSSLAWYQQKPGQPPKLLIYRASTLASGVPSRFSGSGSGTEFTLTISGVQSDDAATYYCQTYYGSTSTGFTFGGGTEVVVKR | koff: 5.99e-07
